System: L-363 (Plasma Cell Myeloma);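 also: after 72 h of two-drug dosing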
Experiment: Bliss excess, mean over the matrix (fraction); higher = more synergy
measurement-kind: Bliss excess
Could you keep your reply to the number by itself?

Solved entries (count: 3):
molecule: Cc1cc2ncnn2cc1Nc1ncc2c(n1)n(C1CCOCC1)c(=O)n2C [AZD7648] + O=C(c1cc(Cc2n[nH]c(=O)c3ccccc23)ccc1F)N1CCN(C(=O)C2CC2)CC1 [Olaparib] (first compound max 10 µM, 7x7, partner max 10 µM)
readout-value: 0.0266
//
molecule: C=CCn1c(=O)c2cnc(Nc3ccc(N4CCN(C)CC4)cc3)nc2n1-c1cccc(C(C)(C)O)n1 [AZD1775] + CCc1c2c(nc3ccc(O)cc13)-c1cc3c(c(=O)n1C2)COC(=O)[C@]3(O)CC [SN-38] (first compound max 1 µM, partner max 0.3 µM)
readout-value: 0.0273
//
molecule: C=CCn1c(=O)c2cnc(Nc3ccc(N4CCN(C)CC4)cc3)nc2n1-c1cccc(C(C)(C)O)n1 [AZD1775] + Nc1ccn([C@@H]2O[C@H](CO)[C@@H](O)C2(F)F)c(=O)n1 [Gemcitabine] (first compound max 1 µM, partner max 0.3 µM)
readout-value: 0.125

Attention now shifts to the item below.
I have this molecule here, CC(=O)c1c(C)c2cnc(Nc3ccc(N4CCNCC4)cn3)nc2n(C2CCCC2)c1=O [Palbociclib] + Cc1c2c(nn1C)CSCc1cc(n(C)n1)CSc1cc(c3ccccc3c1)OCCCc1c(C(=O)O)n(C)c3c-2c(Cl)ccc13 [AZD5991] (first compound max 10 µM, 7x7, partner max 1 µM) , and I need its recorded Bliss excess. -0.0147

====

Test system: NCI-H2170 (Squamous Cell Lung Carcinoma)
Test: combination Emax (second highest fraction inhibited in the dose matrix, 72 h); higher = more inhibition; extreme values may be limits of the assay
// values below are reported combination Emax
Could you keep your reply to the number by itself?

I have this molecule here, C[C@@H](c1ccc2nccn2c1)n1nnc2ncc(-c3cnn(C)c3)nc21 [Savolitinib] + CC1(C)CCC(CN2CCN(c3ccc(C(=O)NS(=O)(=O)c4ccc(NCC5CCOCC5)c([N+](=O)[O-])c4)c(Oc4cnc5[nH]ccc5c4)c3)CC2)=C(c2ccc(Cl)cc2)C1 [Venetoclax] (first compound max 1 µM, 7x7, partner max 1 µM) , and I need its recorded combination Emax. 0.162

I have this molecule here, Cc1c2c(nn1C)CSCc1cc(n(C)n1)CSc1cc(c3ccccc3c1)OCCCc1c(C(=O)O)n(C)c3c-2c(Cl)ccc13 [AZD5991] + C=CCn1c(=O)c2cnc(Nc3ccc(N4CCN(C)CC4)cc3)nc2n1-c1cccc(C(C)(C)O)n1 [AZD1775] (first compound max 1 µM, partner max 1 µM) , and I need its recorded combination Emax. 0.749

====

Tested on: RPMI-8402 (T-Lymphoblastic Leukemia)
Assay: combination Emax (second highest fraction inhibited in the dose matrix, 72 h); higher = more inhibition; extreme values may be limits of the assay
measurement-kind: combination Emax
Could you keep your reply to the number by itself?

Solved entries (count: 8):
molecule: CN(CCO)CC[C@H](CSc1ccccc1)Nc1ccc(S(=O)(=O)NC(=O)c2ccc(N3CCC([C@@H](O)c4ccccc4-c4ccc(Cl)cc4)CC3)cc2)cc1S(=O)(=O)C(F)(F)F [AZD4320] + CCN(CCO)CCCOc1ccc2c(Nc3cc(CC(=O)Nc4cccc(F)c4)[nH]n3)ncnc2c1 [AZD2811] (first compound max 1 µM, 7x7, partner max 1 µM)
combination Emax: 0.999
//
molecule: C[C@@H]1COCCN1c1cc(C2([S@](C)(=N)=O)CC2)nc(-c2ccnc3[nH]ccc23)n1 [AZD6738] + C1CC(C1)(C(=O)[O-])C(=O)[O-].N.N.[Pt+2] [Carboplatin] (first compound max 10 µM, 7x7, partner max 10 µM)
combination Emax: 0.967
//
molecule: COc1cccc(OCCCN)c1-c1cc(Nc2cnc(C#N)cn2)n[nH]1 [Prexasertib] + CCc1c2c(nc3ccc(O)cc13)-c1cc3c(c(=O)n1C2)COC(=O)[C@]3(O)CC [SN-38] (first compound max 1 µM, 7x7, partner max 0.3 µM)
combination Emax: 1
//
molecule: Cc1c2c(nn1C)CSCc1cc(n(C)n1)CSc1cc(c3ccccc3c1)OCCCc1c(C(=O)O)n(C)c3c-2c(Cl)ccc13 [AZD5991] + C=CCn1c(=O)c2cnc(Nc3ccc(N4CCN(C)CC4)cc3)nc2n1-c1cccc(C(C)(C)O)n1 [AZD1775] (first compound max 1 µM, partner max 1 µM)
combination Emax: 1
//
molecule: Cc1c2c(nn1C)CSCc1cc(n(C)n1)CSc1cc(c3ccccc3c1)OCCCc1c(C(=O)O)n(C)c3c-2c(Cl)ccc13 [AZD5991] + CCN(CCO)CCCOc1ccc2c(Nc3cc(CC(=O)Nc4cccc(F)c4)[nH]n3)ncnc2c1 [AZD2811] (first compound max 1 µM, 7x7, partner max 1 µM)
combination Emax: 1
//
molecule: C[C@@H](Nc1cc(F)cc(F)c1)c1cc(C(=O)N(C)C)cc2c(=O)cc(N3CCOCC3)oc12 [AZD8186] + CC(=O)c1c(C)c2cnc(Nc3ccc(N4CCNCC4)cn3)nc2n(C2CCCC2)c1=O [Palbociclib] (first compound max 10 µM, 7x7, partner max 10 µM)
combination Emax: 0.9
//
molecule: N#Cc1cnc(Nc2cc(NC[C@H]3CNCCO3)c(C(F)(F)F)cn2)cn1 [SRA737] + Nc1ccn([C@@H]2O[C@H](CO)[C@@H](O)C2(F)F)c(=O)n1 [Gemcitabine] (first compound max 10 µM, 7x7, partner max 0.3 µM)
combination Emax: 1
//
molecule: Cc1cc2ncnn2cc1Nc1ncc2c(n1)n(C1CCOCC1)c(=O)n2C [AZD7648] + COc1cc([C@@H]2c3cc4c(cc3[C@@H](O[C@@H]3O[C@@H]5CO[C@@H](C)O[C@H]5[C@H](O)[C@H]3O)[C@H]3COC(=O)[C@H]23)OCO4)cc(OC)c1O [Etoposide] (first compound max 10 µM, 7x7, partner max 10 µM)
combination Emax: 1

I have this molecule here, CC1(C)CCC(CN2CCN(c3ccc(C(=O)NS(=O)(=O)c4ccc(NCC5CCOCC5)c([N+](=O)[O-])c4)c(Oc4cnc5[nH]ccc5c4)c3)CC2)=C(c2ccc(Cl)cc2)C1 [Venetoclax] + Cc1cc2ncnn2cc1Nc1ncc2c(n1)n(C1CCOCC1)c(=O)n2C [AZD7648] (first compound max 1 µM, 7x7, partner max 10 µM) , and I need its recorded combination Emax. 0.287

I have this molecule here, C[C@@H](Oc1cc(-c2cnn(C3CCNCC3)c2)cnc1N)c1c(Cl)ccc(F)c1Cl [Crizotinib] + Cn1cnc2c(F)c(Nc3ccc(Br)cc3Cl)c(C(=O)NOCCO)cc21 [Selumetinib] (first compound max 10 µM, 7x7, partner max 10 µM) , and I need its recorded combination Emax. 0.99

I have this molecule here, COc1nnc2ccc(N3CCC(c4ccc(OCCN5CCN(C)C(=O)[C@H]5C)cc4)CC3)nn12 [AZD5153] + CC1(C)CCC(CN2CCN(c3ccc(C(=O)NS(=O)(=O)c4ccc(NCC5CCOCC5)c([N+](=O)[O-])c4)c(Oc4cnc5[nH]ccc5c4)c3)CC2)=C(c2ccc(Cl)cc2)C1 [Venetoclax] (first compound max 1 µM, 7x7, partner max 1 µM) , and I need its recorded combination Emax. 0.791

I have this molecule here, COc1nnc2ccc(N3CCC(c4ccc(OCCN5CCN(C)C(=O)[C@H]5C)cc4)CC3)nn12 [AZD5153] + Cn1cnc2c(F)c(Nc3ccc(Br)cc3Cl)c(C(=O)NOCCO)cc21 [Selumetinib] (first compound max 1 µM, 7x7, partner max 10 µM) , and I need its recorded combination Emax. 0.774

I have this molecule here, CC1(C)CCC(CN2CCN(c3ccc(C(=O)NS(=O)(=O)c4ccc(NCC5CCOCC5)c([N+](=O)[O-])c4)c(Oc4cnc5[nH]ccc5c4)c3)CC2)=C(c2ccc(Cl)cc2)C1 [Venetoclax] + C[C@@H]1COCCN1C2=NC(=NC(=C2)C3(CC3)[S@](=N)(=O)C)C4=C5C=CNC5=NC=C4 [AZD6738] (first compound max 1 µM, 7x7, partner max 10 µM) , and I need its recorded combination Emax. 0.992
